Where these numbers come from: patent US20260125477A1

Recorded measurements of Response (RU), one per entry
- Tgt: T1, human B7-H5/Gi24/VISTA protein, with His tag (MALS verified) (human, UniProt Q9H7M9 33-194)
- T1 construct: Bought protein
- T1 sequence (looked up): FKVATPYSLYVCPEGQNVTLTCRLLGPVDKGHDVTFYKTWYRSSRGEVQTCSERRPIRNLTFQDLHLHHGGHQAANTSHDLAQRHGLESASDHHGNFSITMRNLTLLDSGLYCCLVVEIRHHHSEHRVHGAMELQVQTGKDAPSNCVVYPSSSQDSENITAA
- Test: SPR (Biacore T200), antibody captured on Protein A chip, response at 200 nM antigen
Expressed in RU, but write only the number.

input: // Response (RU) lookup, key: 10F5 (antibody, human IgG1, kappa, V domains shown, also called Ab10F5) VH: QVQLVQSGAEVKKPGSSVKVSCKASGGTFSSQAISWVRQAPGQGLEWMGRIIPMLGIGDYAQSFQGRVTITADKSTSTAYLEVSSLGSEDTAVYYCAREGIAALGTNYYYGMDVWGQGTAVTVSS VL: EIVMTQSPSSVSASVGDRVTITCRASQGISRWLAWYQQKPGKAPKLLIYVASSLQSGVPSRFSGSGSGTDFTLTISSLQPEDFATYYCQQANSFPFTFGPGTKVDIRR
output: 0.6

input: // Response (RU) lookup, key: Enoblituzumab (antibody, human IgG1, kappa, V domains shown, Humanized anti-B7-H3 antibody of MacroGenics with optimised Fc, used as the positive control; also called AbEno; enoblituzumab-IgG1-Mut) VH: EVQLVESGGGLVQPGGSLRLSCAASGFTFSSFGMHWVRQAPGKGLEWVAYISSDSSAIYYADTVKGRFTISRDNAKNSLYLQMNSLRDEDTAVYYCGRGRENIYYGSRLDYWGQGTTVTVSS VL: DIQLTQSPSFLSASVGDRVTITCKASQNVDTNVAWYQQKPGKAPKALIYSASYRYSGVPSRFSGSGSGTDFTLTISSLQPEDFATYYCQQYNNYPFTFGQGTKLEIKR
output: -1.8

input: // Response (RU) lookup, key: 10D7 (antibody, human IgG1, kappa, V domains shown, also called 10D7-WT; Ab10D7) VH: QVQLVQSGPGLVKPSETLSLTCTVSGGSISRSSYYWGWIRQPPGKGLEWIGNIFYAGSTYYNPSLKSRVTISVDTSKNQFSLKLSSVTAADTAVYYCARRITGTTGWFDPWGQGTLVTVSS VL: DIQLTQSPSSLSASVGDRVTITCRASQGIRNDLGWYQQKPGKAPKLLIYAASTLQSGVPSRFSGSGSGTDFTLTISSLQPEDFATYYCLQDYNYPRTFGQGTKVEIKR
output: 0.6

input: // Response (RU) lookup, key: 6B5 (antibody, human IgG1, kappa, V domains shown, also called 6B5-WT; Ab6B5) VH: QVQLVESGPGLVKPSQTLSLTCTVSDGSISSGGYYWSWIRQHPGKGLEWIGYIYYSGGTYYSPSLKSRVTISVDTSKNQFSLKLTSVTAADTAVYYCARRAGYSSSFDSWGQGILVTVSS VL: EIVLTQSPLSLPVTPGEPASISCRSSQSLLYSNGYTYLDWYLQKPGQSPQFLIYLGFNRASGVPDRFSGSGSGTDFTLKISRVEAEDVGVYYCMQGLQTPYTFGQGTKLEIKR
output: 0.9
